Listing of recorded Activity by entry.
system: H9c2; assay: Cardioprotective activity against rat H9c2 cells assessed as inhibition of doxorubicin-induced cytotoxicity by measuring increase in cell suvival at 0.3 nM preincubated for 10 hrs followed by doxorubicin treatment and measured after 14 hrs by cQuant based analysis (reference value: 0%); format: functional; design: scale not given: the % may be the effect or the level left; settings: time 24 hrs
Quantity Name: Activity

[
  {
    "Molecule": "CN1C(=O)[C@@]2(c3ccccc31)[C@H](c1ccccc1)N(C)C(=O)[C@@H]2O",
    "Target Or Test System": "H9c2",
    "Result": "1.9%"
  },
  {
    "Molecule": "COC(=O)[C@H]1C[C@]2(C(=O)Nc3ccccc32)[C@@H](c2ccccc2)N1",
    "Target Or Test System": "H9c2",
    "Result": "4%"
  },
  {
    "Molecule": "O=C1Nc2cc(Br)ccc2C12CCNC2c1ccccc1 (configuration not stated)",
    "Target Or Test System": "H9c2",
    "Result": "1.1%"
  },
  {
    "Molecule": "CN(C)C(=O)CN1CC[C@@]2(C(=O)Nc3ccccc32)[C@@H]1c1ccccc1",
    "Target Or Test System": "H9c2",
    "Result": "1.4%"
  },
  {
    "Molecule": "COC(=O)[C@H]1C[C@@]2(C(=O)Nc3ccccc32)[C@H](c2ccccc2)N1",
    "Target Or Test System": "H9c2",
    "Result": "2.9%"
  },
  {
    "Molecule": "O=C1Nc2ccccc2[C@]12CCN(C1CCCC1)[C@H]2c1ccccc1",
    "Target Or Test System": "H9c2",
    "Result": "2.6%"
  },
  {
    "Molecule": "CCCN1CC[C@@]2(C(=O)Nc3ccccc32)[C@@H]1c1ccccc1",
    "Target Or Test System": "H9c2",
    "Result": "1.3%"
  },
  {
    "Molecule": "COc1cc(OC)c2c(c1)O[C@@]1(c3ccc(Br)cc3)[C@H](c3ccccc3)C[C@@H](O)[C@@]21O",
    "Target Or Test System": "H9c2",
    "Result": "3.5%"
  },
  {
    "Molecule": "CCCCN1CC[C@@]2(C(=O)Nc3ccccc32)[C@@H]1c1ccccc1",
    "Target Or Test System": "H9c2",
    "Result": "0.9%"
  },
  {
    "Molecule": "CC(C)N1CC[C@@]2(C(=O)Nc3ccccc32)[C@@H]1c1ccccc1",
    "Target Or Test System": "H9c2",
    "Result": "6.7%"
  },
  {
    "Molecule": "CN1CC[C@@]2(C(=O)Nc3ccccc32)[C@@H]1c1ccccc1",
    "Target Or Test System": "H9c2",
    "Result": "5.4%"
  },
  {
    "Molecule": "O=C(CN1CC[C@@]2(C(=O)Nc3ccccc32)[C@@H]1c1ccccc1)N1CCOCC1",
    "Target Or Test System": "H9c2",
    "Result": "0.3%"
  },
  {
    "Molecule": "O=C1Nc2ccccc2[C@]12CCNC2c1ccccc1 (some centres not stated)",
    "Target Or Test System": "H9c2",
    "Result": "7.7%"
  },
  {
    "Molecule": "O=C1N[C@@H](c2ccccc2)[C@]2(C(=O)Nc3ccccc32)[C@H]1O",
    "Target Or Test System": "H9c2",
    "Result": "3%"
  },
  {
    "Molecule": "CCN1CC[C@@]2(C(=O)Nc3ccccc32)[C@@H]1c1ccccc1",
    "Target Or Test System": "H9c2",
    "Result": "6%"
  },
  {
    "Molecule": "C=CCN1CC[C@@]2(C(=O)Nc3ccccc32)[C@@H]1c1ccccc1",
    "Target Or Test System": "H9c2",
    "Result": "4.6%"
  },
  {
    "Molecule": "Cc1ccc2c(c1)NC(=O)C21CCNC1c1ccccc1 (configuration not stated)",
    "Target Or Test System": "H9c2",
    "Result": "0.3%"
  }
]

---

test system: H9c2; experiment: Cardioprotective activity against rat H9c2 cells assessed as inhibition of doxorubicin-induced ROS production at 0.3 nM preincubated for 14 hrs followed by loading with DCFDA dye for 45 mins and later exposed to doxorubicin for 3 hrs by DCF-DA probe based fluorescence assay (reference value: 0%); type: functional; conditions: H9c2, 17.75 h, time 1065 min
Binary call on inhibition at 0.0003 µM: yes from 6% upward, no beneath that.

[
  {
    "Compound": "O=C1N[C@@H](c2ccccc2)[C@]2(C(=O)Nc3ccccc32)[C@H]1O",
    "Target Or Test System": "H9c2",
    "Group Label": "yes"
  },
  {
    "Compound": "CN(C)C(=O)CN1CC[C@@]2(C(=O)Nc3ccccc32)[C@@H]1c1ccccc1",
    "Target Or Test System": "H9c2",
    "Group Label": "no"
  },
  {
    "Compound": "O=C1Nc2ccccc2[C@]12CCN(C1CCCC1)[C@H]2c1ccccc1",
    "Target Or Test System": "H9c2",
    "Group Label": "no"
  },
  {
    "Compound": "CN1C(=O)[C@@]2(c3ccccc31)[C@H](c1ccccc1)N(C)C(=O)[C@@H]2O",
    "Target Or Test System": "H9c2",
    "Group Label": "no"
  },
  {
    "Compound": "O=C1Nc2cc(Br)ccc2C12CCNC2c1ccccc1 (configuration not stated)",
    "Target Or Test System": "H9c2",
    "Group Label": "no"
  },
  {
    "Compound": "COC(=O)[C@H]1C[C@@]2(C(=O)Nc3ccccc32)[C@H](c2ccccc2)N1",
    "Target Or Test System": "H9c2",
    "Group Label": "no"
  },
  {
    "Compound": "C=CCN1CC[C@@]2(C(=O)Nc3ccccc32)[C@@H]1c1ccccc1",
    "Target Or Test System": "H9c2",
    "Group Label": "yes"
  },
  {
    "Compound": "Cc1ccc2c(c1)NC(=O)C21CCNC1c1ccccc1 (configuration not stated)",
    "Target Or Test System": "H9c2",
    "Group Label": "no"
  },
  {
    "Compound": "COC(=O)[C@H]1C[C@]2(C(=O)Nc3ccccc32)[C@@H](c2ccccc2)N1",
    "Target Or Test System": "H9c2",
    "Group Label": "no"
  },
  {
    "Compound": "CCCCN1CC[C@@]2(C(=O)Nc3ccccc32)[C@@H]1c1ccccc1",
    "Target Or Test System": "H9c2",
    "Group Label": "yes"
  },
  {
    "Compound": "CN1CC[C@@]2(C(=O)Nc3ccccc32)[C@@H]1c1ccccc1",
    "Target Or Test System": "H9c2",
    "Group Label": "yes"
  },
  {
    "Compound": "O=C(CN1CC[C@@]2(C(=O)Nc3ccccc32)[C@@H]1c1ccccc1)N1CCOCC1",
    "Target Or Test System": "H9c2",
    "Group Label": "no"
  }
]
